Form field: growth (one value per entry).
System: HOP-92 NSCLC
Assay: NCI-60 one-dose screen, 48 h (100 = growth as untreated, 0 = no growth, -100 = all killed)
Details: 10 µM unless noted
Compounds without any hit were thinned out: in the full panel of roughly 83,000, 20% have a hit.
Numbers only; they are read as %.

Some entries whose results are on file:
CCOC(=O)c1[nH]cc2c1CCc1sc(Nc3ccccn3)nc1-2 :: 56.3
Fc1ccc2[nH]cc(-c3nc(-c4c[nH]c5c(Cl)nccc45)cs3)c2c1 :: 36.4
c1ccc(-c2nc3ccccc3[nH]2)c(OCCCCCOc2ccccc2-c2nc3ccccc3[nH]2)c1 :: -21.4
CC/C(=C(\c1ccc(Cl)cc1)c1ccc(OCCN2CCCCC2)cc1)c1ccc(O)cc1 :: 49.9
CCN(CC)CCOc1ccc2ccc(=O)oc2c1 :: -15.1
Cc1cccc(N=Nc2cccc(C)c2)c1 :: 85.9
CCN(CC)CCCNc1cc(OC)c(OC)c2cccnc12 :: 84.7
COc1ccc(-c2cc(C(=O)N3N=C(c4ccc(N)cc4)CC3c3ccc(Cl)cc3)c3cc(OC)ccc3n2)cc1 (centres undefined) :: 59.2

Per the records, this molecule ( Cc1nc2sc(C(=O)Nc3cccc(Cl)c3C)c(N)c2cc1C(=O)/C=C/c1ccccc1 ) has growth equal to 1.05

Per the records, this molecule ( O=[N+]([O-])c1ccccc1Nc1ccc2ccccc2c1 ) has growth equal to 82.9

Per the records, this molecule ( N#Cc1ccc(O)c(C2=NCC(c3ccc(-c4ccccc4)cc3)O2)c1 (centres undefined) ) has growth equal to 35

Per the records, this molecule ( CCOC(=O)CC1CSC(N/N=C/c2ccc(F)c(Br)c2)=N1 (centres undefined) ) has growth equal to 105

Per the records, this molecule ( CCCCCc1ccc(S(=O)(=O)Nc2ccc3nc(N)oc3c2)cc1 ) has growth equal to 19.5

Per the records, this molecule ( O=C(/C=C/c1ccccc1Cl)c1cccc(OCCCCOc2cccc(C(=O)/C=C/c3ccccc3Cl)c2)c1 ) has growth equal to 94.4

###

Test system: OVCAR-3 ovarian
Assay: NCI-60 one-dose screen, 48 h (100 = growth as untreated, 0 = no growth, -100 = all killed)
Settings: 10 µM unless noted
The panel holds about 83,000 compounds, 20% with a hit somewhere; the sample as a whole holds those more often. Activity calls are given as the source filed them. The calls were made as follows: active = growth percent below 10; inactive = the rest.
Quantity Kind: growth

Some entries whose results are on file:
CC1=C2[C@@H](CC1)[C@]1(C)O[C@@](C3CCNCC3)(C[C@H]1OC(=O)CO)[C@H]2OC(=O)/C=C/c1ccccc1 :: 93.9% (inactive)
COc1ccc(/C=N/NC(=O)Cn2c(-c3ccc(S(C)(=O)=O)cc3)nc3ccccc32)cc1 :: 103% (inactive)
O=S(Nc1ccccc1)c1ccc(Cl)cc1 (centres undefined) :: 112% (inactive)

Would you kindly look at the next entry?
The reported growth value, OVCAR-3 ovarian, for CSc1nc2ccc(C)cc2cc1/C=C1/C=C(c2ccccc2)NC1=O reads 6.24% (active)

###

Test system: OVCAR-8 ovarian
Assay: NCI-60 one-dose screen, 48 h
Details: 10 µM unless noted
Experimental: Growth inhibition of the OVCAR-8 human tumor cell line is measured as a screen for anti-cancer activity. Cells are grown in 96 well plates and exposed to the test compound for 48 hours. Compounds are tested at a single concentration, which is 10^-5 M for most compounds. The reported endpoint is percent growth (GI% or GIPRCNT), where numbers from 0 - 100% represent growth inhibition, and numbers from -100% - 0 represent cell death. For example, a value of 40 represents 60% growth inhibition. […]
The panel holds about 83,000 compounds, 20% with a hit somewhere; the sample as a whole holds those more often. Calls of active or inactive are those of the source. Rule for the calls: active = growth percent below 10; inactive = the rest.
Give one outcome, nothing more. List: True (active), False (inactive)

See these solved cases before continuing.
CN1CCN(Cc2ccc(NC(=O)c3cncc(C#Cc4cnc(N)cc4C#N)c3)cc2C(F)(F)F)CC1 :: False
O=c1oc2c(cnc3ccccc32)cc1-c1cccc(Cl)c1 :: False
O=C1C(Cl)=C(Nc2ccccc2)C(=O)c2ccccc21 :: True
COc1cc(/C=N/NC(=O)c2ccc(-n3cc(-c4ccccc4)nn3)cc2)cc(OC)c1OC :: False
Nc1ncnc2c1N=C(c1ccc(F)cc1)CC(c1cccc(Nc3ccnc4cc(Cl)ccc34)c1)N2 (centres undefined) :: False

Inquiry: Recorded test outcome, item COc1ccc(/C=C2\CN(C(=O)C(Cl)Cl)C/C(=C\c3ccc(OC)c(OC)c3)C2=O)cc1OC
Reply text: False

Inquiry: Recorded test outcome, item O=C(NNc1nc2cc(F)ccc2n2c(CN3CCOCC3)ccc12)c1ccccc1
Reply text: False

###

Form field: growth (one value per entry).
System: MCF7 breast
Assay: NCI-60 one-dose screen, 48 h (100 = growth as untreated, 0 = no growth, -100 = all killed)
Conditions: 10 µM unless noted
About 83,000 compounds went through this panel and 20% of them were active in at least one assay; those are over-represented in the sample as a whole. Activity calls are given as the source filed them. How the source made its calls: active means growth percent below 10; inactive means the rest.

Some entries whose results are on file:
CSc1nc2ccc(C)cc2cc1/C=C1/C=C(c2ccccc2)NC1=O :: 48.1% (inactive)
CNC(=O)Nc1ccc(-c2ccc3ncnc(Nc4cccc(Cl)c4)c3c2)cc1 :: 22.6% (inactive)
O=C1c2cccnc2C(=O)c2c1c(C(=O)OCCc1ccccn1)c1ccccn21 :: -56.8% (active)
C/C=C1/CN(CCCCC)CC[C@H]1C(=O)c1cc2ccccc2[nH]1 :: 89.3% (inactive)
Cc1ccc(-c2csc(NC(=O)CSc3nc(N)cc(N)n3)n2)cc1 :: 50.6% (inactive)
OC1CSSC1Cn1cnc2c(Nc3ccc(OCc4cccc(F)c4)c(Cl)c3)ncnc21 (stereo not given) :: -60.1% (active)
CC[C@@H](C(=O)[C@@H](C)[C@@H](O)[C@H](C)[C@@H]1O[C@@H]([C@@H](CC)C(=O)ONC(=O)c2ccccc2O)CC[C@@H]1C)C1O[C@]2(C=CC(=O)[C@]3(CC[C@@](C)([C@H]4CC[C@](O)(CC)[C@H](C)O4)O3)O2)[C@H](C)C[C@@H]1C (stereo not given in full) :: 17.8% (inactive)
Nc1ncnc2c1N=C(c1ccc(F)cc1)CC(c1cccc(Nc3ccnc4cc(Cl)ccc34)c1)N2 (stereo not given) :: 51.2% (inactive)
CC1SC(c2ccccc2O)N(NC(=O)CCC(=O)c2nc3ncccc3[nH]2)C1=O (stereo not given) :: 98.7% (inactive)
C=CCN=c1sc(-c2ccc3ccccc3c2)cn1NC(=O)c1cc2ccc1CCc1ccc(cc1)CC2 :: 35.9% (inactive)

The reported growth value, MCF7 breast, for O=C(NCCCCO)c1cncnc1Nc1ccc2c(ccn2Cc2cccc(F)c2)c1 reads 96.8% (inactive)

The reported growth value, MCF7 breast, for COc1ccc2[nH]cc(-c3nonc3-c3c[nH]c4ccc(Br)cc34)c2c1 reads 31.2% (inactive)

The reported growth value, MCF7 breast, for COc1ccc(Oc2ccc(/C=C/C(=O)c3cc4ccccc4oc3=O)cc2)cc1 reads 25.9% (inactive)

###

Form field: growth (one value per entry).
System: U251 CNS
Experiment: NCI-60 one-dose screen, 48 h (100 = growth as untreated, 0 = no growth, -100 = all killed)
Conditions: 10 µM unless noted
The panel holds about 83,000 compounds, 20% with a hit somewhere; the sample as a whole holds those more often.
Numbers only; they are read as %.

CC(C)c1ccc2c(c1)CC[C@H]1[C@](C)(C(=O)OCC#CCN3CCCC3)CCC[C@]21C :: 69.2
CN1CCN(Cc2ccc(NC(=O)c3cncc(C#Cc4cnc(N)cc4C#N)c3)cc2C(F)(F)F)CC1 :: 20.1

Per the records, this compound ( O=C(O)CCCCCCCCCCN1C(=O)/C(=C2/C(=O)N(CC(=O)O)c3ccc(Br)cc32)SC1=S ) has growth equal to 72

Per the records, this compound ( N#Cc1c(-c2cccc(Cl)c2)cc(-c2cccnc2)[nH]c1=O ) has growth equal to 71.8

Per the records, this compound ( COc1ccc(/C=C2\c3cc(OC)c(OC)c(OC)c3CC[C@@H]2O)cc1F ) has growth equal to 20.1

###

Tested on: SF-295 CNS
Test: NCI-60 one-dose screen, 48 h
Details: 10 µM unless noted
About 83,000 compounds went through this panel and 20% of them were active in at least one assay; those are over-represented in the sample as a whole. The source made the active and inactive calls. How the source made its calls: active means growth percent below 10; inactive means the rest.
Give one outcome, nothing more. List: class 1 for active, class 0 for inactive

See these solved cases before continuing.
COc1ccc(C/C(C)=C(\c2ccc(Cl)cc2)c2ccc(OCCCN(C)C)cc2)cc1 :: class 0
Cc1ccc(C2CC(c3cccc(Nc4ccncc4)c3)=Nc3c(N)nc(N)nc3N2)cc1 (stereo unspecified) :: class 0
c1ccc(Nc2nc3c(s2)CCc2c[nH]cc2-3)nc1 :: class 0
Cc1cccc(NC(=O)N/C(N)=N/c2nc3ccccc3s2)c1 :: class 0
O=C1c2cccnc2C(=O)c2c1c(C(=O)OCCc1ccccn1)c1ccccn21 :: class 1

Inquiry: Recorded test outcome, item COc1ccccc1/C=C/C(=O)Nc1ccc(F)cc1
Reply text: class 0

Inquiry: Recorded test outcome, item CCOC(=O)/C(=C(/C)NCC(C)C)c1cc(O)c(O)c2c(C)cc(=O)[nH]c12
Reply text: class 0

Inquiry: Recorded test outcome, item CCCCC#Cc1c(I)n(C2OC(CO[Si](C)(C)C(C)(C)C)C3OC(C)(C)OC32)c(=O)n(C(=O)c2ccccc2)c1=O (stereo unspecified)
Reply text: class 0

Inquiry: Recorded test outcome, item O=C(O)CC(C(=O)O)/C(=C\c1ccccc1)c1ccccc1 (stereo unspecified)
Reply text: class 0

Inquiry: Recorded test outcome, item O=c1oc2c(cc1-c1ccccc1)c[n+]([O-])c1ccccc21
Reply text: class 0

Inquiry: Recorded test outcome, item Nc1cc(-c2ccc(Cl)cc2)nn1-c1nnc(/C=C/c2ccco2)c(=O)[nH]1
Reply text: class 1

Inquiry: Recorded test outcome, item O=C(NC1CCC(Br)CC1)C1CCCC(S(=O)(=O)NC2CCCCC2)C1 (stereo unspecified)
Reply text: class 1
